Molecular target: Angiotensin-converting enzyme (Oryctolagus cuniculus)
Sequence (P12822 whole entry): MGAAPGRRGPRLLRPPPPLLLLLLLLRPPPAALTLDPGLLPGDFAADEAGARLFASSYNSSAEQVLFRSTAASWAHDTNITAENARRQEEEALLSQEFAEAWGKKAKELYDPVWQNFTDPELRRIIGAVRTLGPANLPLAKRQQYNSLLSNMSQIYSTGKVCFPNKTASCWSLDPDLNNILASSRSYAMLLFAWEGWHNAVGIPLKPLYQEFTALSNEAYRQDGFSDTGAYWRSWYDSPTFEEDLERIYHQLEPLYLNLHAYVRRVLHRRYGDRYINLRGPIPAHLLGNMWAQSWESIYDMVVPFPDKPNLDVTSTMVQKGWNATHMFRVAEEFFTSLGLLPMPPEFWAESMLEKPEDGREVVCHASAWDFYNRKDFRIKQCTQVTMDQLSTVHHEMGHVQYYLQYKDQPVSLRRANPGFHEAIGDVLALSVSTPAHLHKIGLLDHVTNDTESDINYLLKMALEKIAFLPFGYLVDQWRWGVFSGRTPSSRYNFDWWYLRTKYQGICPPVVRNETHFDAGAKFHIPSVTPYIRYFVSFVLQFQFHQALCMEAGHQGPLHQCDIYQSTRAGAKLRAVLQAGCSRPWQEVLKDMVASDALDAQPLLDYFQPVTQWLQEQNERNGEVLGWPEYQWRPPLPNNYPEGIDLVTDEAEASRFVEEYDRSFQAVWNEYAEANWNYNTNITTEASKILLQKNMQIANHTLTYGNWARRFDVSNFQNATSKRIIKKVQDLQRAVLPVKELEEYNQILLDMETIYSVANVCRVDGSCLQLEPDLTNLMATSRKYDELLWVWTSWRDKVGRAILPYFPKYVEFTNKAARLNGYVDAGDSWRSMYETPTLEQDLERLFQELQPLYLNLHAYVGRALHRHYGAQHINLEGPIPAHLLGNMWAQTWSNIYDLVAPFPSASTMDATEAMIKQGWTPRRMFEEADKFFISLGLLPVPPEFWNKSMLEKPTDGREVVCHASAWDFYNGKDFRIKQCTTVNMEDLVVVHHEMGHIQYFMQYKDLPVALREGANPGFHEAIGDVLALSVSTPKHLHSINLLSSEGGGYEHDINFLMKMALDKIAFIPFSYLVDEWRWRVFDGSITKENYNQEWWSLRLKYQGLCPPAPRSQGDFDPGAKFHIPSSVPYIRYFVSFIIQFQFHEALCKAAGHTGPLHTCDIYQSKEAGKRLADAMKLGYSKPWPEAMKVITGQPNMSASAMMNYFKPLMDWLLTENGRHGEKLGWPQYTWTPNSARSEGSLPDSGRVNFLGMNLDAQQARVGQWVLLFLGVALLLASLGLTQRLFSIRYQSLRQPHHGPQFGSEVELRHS
Experiment: In vitro inhibition of Angiotensin I converting enzyme isolated from rabbit lung extract.
assay-readout: IC50 (nM)

O=C(O)CN1CCCC[C@H](NC(=O)[C@@H](S)Cc2ccccc2)C1=O; 22

A. C=CC[C@H]1CCC[C@H](NC(=O)[C@@H](S)Cc2ccccc2)C(=O)N1CC(=O)O
B. O=C(O)CN1C(=O)[C@@H](NC(=O)[C@@H](S)Cc2ccccc2)CCc2ccccc21
Query string: Problem: Given the entries A and B , determine which has the lower reported IC50. Respond using the label that marks the chosen record.
Result string: A
(A: 7 nM, B: 12 nM)

a. C[C@@H](C(=O)O)N1CCCC[C@H](NC(=O)[C@@H](S)Cc2ccccc2)C1=O
b. CCC[C@@H]1CCC[C@H](NC(=O)[C@@H](S)Cc2ccccc2)C(=O)N1CC(=O)O
c. C[C@H]1CCC[C@H](NC(=O)[C@@H](S)Cc2ccccc2)C(=O)N1CC(=O)O
Query string: Please produce an ascending ranking of these compounds based on IC50. Return value: ordered labels per request.
Result string: c, b, a
(c: 8 nM, b: 14 nM, a: 26 nM)

P. O=C(N[C@H]1CCC[C@H]2CCC[C@@H](C(=O)O)N2C1=O)[C@@H](S)Cc1ccccc1
Q. C[C@@H]1CCC[C@H](NC(=O)[C@@H](S)Cc2ccccc2)C(=O)N1CC(=O)O
Query string: Between P and Q , which one shows the larger IC50 value? Respond using the label that marks the chosen record.
Result string: Q
(Q: 16 nM, P: 11 nM)
